Cited source: patent US20150274820A1

Target: T1, recombinant human VEGF110 (human, UniProt P15692-4 27-136, limits assumed)
T1 construct: Made in house; also called hVEGF110
T1 sequence (looked up): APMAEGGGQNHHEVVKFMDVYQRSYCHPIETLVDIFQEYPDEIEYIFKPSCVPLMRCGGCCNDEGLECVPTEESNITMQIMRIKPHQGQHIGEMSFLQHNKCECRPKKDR
Assay: Biacore SPR, VEGF immobilized, pH 5
Protocol: In this example, the Biacore-binding ability of scFvs was tested and the binding affinity was measured using the exemplary surface plasmon resonance method with BIAcore™-T100. […] The apparent dissociation rate constant (kd), the apparent association rate constant (kₐ) and the apparent dissociation equilibrium constant (KD) were calculated using one-to-one Langmuir binding model with BIAcore T100 evaluation Software version 1.1.
// kon lookup, one value per entry

binder | kon [M⁻¹ s⁻¹]
511-min (scFv, VL and VH tied by name; also called Protein Nr) scFv: EIVMTQSPSTLSASVGDRVIITCQASQSINIWCSWYQQKPGKAPKLLIYRASTLASGVPSRFSGSGSGAEFTLTISSLQPDDFATYYCQANYAYSAGYGAAFGQGTKLTVLGGGGGSGGGGSGGGGSGGGGSEVQLVESGGGLVQPGGSLRLSCAASGFSLNTYYMNWVRQAPGKGLEWVSIIAPDDTTYYASWAKSRFTISRDNSKNTLYLQMNSLRAEDTAVYYCAKSGDTTAWGADIWGQGTLVTVSS | 619000
567-min (scFv, also called Protein Nr; 884) scFv: EIVMTQSPSTLSASVGDRVIITCQADQSIYIWLSWYQQKPGKAPKLLIYKASTLESGVPSRFSGSGSGAEFTLTISSLQPDDFATYYCQNNAHYSTNGGTFGQGTKLTVLGGGGGSGGGGSGGGGSGGGGSEVQLVESGGGLVQPGGSLRLSCAASGFSLSDYYMCWVRQAPGKGLEWVSCLDYFGSTDDASWAKGRFTISRDNSKNTLYLQMNSLRAEDTAVYYCAKTDDSRGWGLNIWGQGTLVTVSS | 1.52e+06
511-max (scFv, also called ESBA802) scFv: EIVMTQSPSTLSASVGDRVIITCQASQSINIWLSWYQQKPGKAPKLLIYRASTLASGVPSRFSGSGSGTEFTLTISSLQPDDFATYYCQANYAYSAGYGAAFGQGTKLTVLGGGGGSGGGGSGGGGSGGGGSEVQLVESGGGLVQPGGSLRLSCTVSGFSLNTYYMNWVRQAPGKGLEWVGIIAPDDTTYYASWAKSRSTISRDTSKNTVYLQMNSLRAEDTAVYYCARSGDTTAWGADIWGQGTLVTVSS | 405000
